IC50, Peptide Deformylase (PDF) (Escherichia coli, UniProt P0A6K3): measured values

Compound: COC(=O)CNC(=O)c1ccc2c(c1)nc(C(CCCCN)NC(=O)CCS)n2Cc1ccccc1 (stereo not shown) [Example 49]
Reading: 5.2 µM
//
Compound: COC(=O)CNC(=O)c1ccc2c(c1)nc(C(Cc1cccc3ccccc13)NC(=O)CCC(=O)O)n2CCc1cccs1 (stereo not shown) [Example 17]
Reading: 0.071 µM
//
Compound: CCCCn1c(C(Cc2cccc3ccccc23)NC(=O)CCC(=O)O)nc2cc(C(=O)NCC(=O)OC)ccc21 (stereo not shown) [Example 18]
Reading: 2.7 µM

[ask] Lab note: need IC50 for COC(=O)CNC(=O)c1ccc2c(c1)nc(C(CCCCN)NC(=O)CCC(=O)O)n2CC1CCCCC1 (stereo not shown) [Example 24] on Peptide Deformylase (PDF) (Escherichia coli, UniProt P0A6K3), anyone have it?
[reply] 13.1 µM
